Target: T1, human GIP receptor (human, UniProt P48546 22-466)
T1 construct: whole, on cells; also called hGIPR
T1 sequence (looked up): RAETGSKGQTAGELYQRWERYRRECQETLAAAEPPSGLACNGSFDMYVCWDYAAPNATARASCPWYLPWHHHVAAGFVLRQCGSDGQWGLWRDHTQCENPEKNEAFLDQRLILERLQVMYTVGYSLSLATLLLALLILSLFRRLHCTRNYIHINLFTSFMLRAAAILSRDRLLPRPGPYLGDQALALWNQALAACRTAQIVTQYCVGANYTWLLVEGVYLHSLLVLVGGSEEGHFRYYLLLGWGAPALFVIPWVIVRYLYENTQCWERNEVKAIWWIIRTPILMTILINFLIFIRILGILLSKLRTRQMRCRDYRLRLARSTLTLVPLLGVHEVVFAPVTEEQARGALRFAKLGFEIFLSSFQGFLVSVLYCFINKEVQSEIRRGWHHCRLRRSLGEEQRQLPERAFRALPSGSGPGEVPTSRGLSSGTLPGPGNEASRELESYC
Assay: 125I-hGIP competition binding, COS-7 cells expressing hGIPR;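 note: nonspecific binding taken as radioligand bound by untransfected cells, binding buffer with or without 2% HSA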
pIC50: −log10 of the molar value. Ends that are not written are not given here. * marks the point of attachment. Stearoyl = CCCCCCCCCCCCCCCCCC(=O)*; Palmitoyl = CCCCCCCCCCCCCCCC(=O)*; Myristoyl = CCCCCCCCCCCCCC(=O)*; Lauroyl = CCCCCCCCCCCC(=O)*
Reported pIC50 values for a set of binders
parameter: pIC50

[
  {
    "binder": "TFISDYSIAMDK(C18 fatty acyl)IHQQDFVNWLLAQK-NH2 [AT128 [hGIP(5-30)NH2-C18/16]]",
    "measured number": 6.33
  },
  {
    "binder": "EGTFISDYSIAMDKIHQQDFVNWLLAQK(Palmitoyl)-NH2 [AT106 [hGIP(3-30)NH2-C16/30]]",
    "measured number": 5.85
  },
  {
    "binder": "Lauroyl-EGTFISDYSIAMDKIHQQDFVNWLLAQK-NH2 [AT101 [hGIP(3-30)NH2-C12/3]]",
    "measured number": 8.00
  },
  {
    "binder": "EGTFISDYSIAMDK(Myristoyl)IHQQDFVNWLLAQK-NH2 [AT111 [hGIP(3-30)NH2-C14/16]]",
    "measured number": 6.58
  },
  {
    "binder": "Stearoyl-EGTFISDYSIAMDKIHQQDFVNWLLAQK-NH2 [AT113 [hGIP(3-30)NH2-C18/3]]",
    "measured number": 4.38
  },
  {
    "binder": "EGTFISDYSIAMDK(Stearoyl)IHQQDFVNWLLAQK-NH2 [AT114 [hGIP(3-30)NH2-C18/16]]",
    "measured number": 6.21
  }
]

The values you see were collected from patent US20200087373A1.
